Below, each entry is listed with its recorded z-score.
Assay: A549 cell viability effects, profiling panel, calcein-AM fluorescence, 48 h, basal (AID 1162); further: test concentration not given here
Details: higher = more signal
REPORTED_PROPERTY: z-score

COMPOUND	REPORTED_RESULT
O=C1OCC=C[C@H]2OC34C=CCN(c5ccc(Cl)cc5)C(=O)[C@H]3N(CCCCCO)C(=O)[C@@H]4[C@@H]12 (stereo partly drawn)	-0.746
O=C1NC(=O)C2C1C=CC(C(O)c1c(F)cccc1Cl)N2Nc1ccccn1 (stereo not drawn)	0.0619
COc1ccc([Si](C)(C)[C@@H]2[C@@H](CC(=O)N3CCC[C@H]3CO)O[C@]3(C(=O)N(Cc4ccc(N5C(=O)c6cccc7cccc5c67)cc4)c4ccccc43)[C@H]2C)cc1	-1.22
CC(C)C(=C=CC[C@H](O)c1ccc(OCCO)cc1)C[C@H](O)c1cc(Cl)cc(Cl)c1O	0.648
COCCCNC(=O)[C@]1(Cc2ccccc2CN=[N+]=[N-])N=C(c2ccc(OCCCO)cc2)O[C@@H]1c1ccccc1	-1.36
CC(C)(C)OC(=O)CC[C@]1(C(=O)NCCN2CCOCC2)N=C(c2ccc(OCCCO)cc2)O[C@H]1c1ccccc1	1.01
NC(=O)NCC#Cc1ccc2c(c1)[C@]1(C(=O)N2)[C@H](C(=O)O)[C@H]2C(=O)O[C@H](c3ccccc3)[C@H](c3ccccc3)N2[C@@H]1c1ccccc1OCCO	0.789
C=CCN1C(=O)[C@]2(CC=C)N=C(c3ccc(OCCCO)cc3)O[C@@H]2c2ccccc21	-1.23
CC(C)N1CC=CC23O[C@@H]4C=CCCOC(=O)C4[C@H]2C(=O)N(CCO)[C@@H]3C1=O (stereo partly drawn)	-0.555
O=c1cccc(-c2ccc(C(F)(F)F)cc2)o1	-1.24
CC=CC(O)C1C=CC2C(=O)N(c3ccccc3)C(=O)C2N1Nc1ccc([N+](=O)[O-])cc1 (stereo not drawn)	-0.972
CCOC(=O)C[C@H]1[C@H](OC(=O)Cc2ccc3c(c2)OCO3)[C@@H](NC(=O)C2CCCCC2)c2cc(OCCCO)ccc2N1C(=O)c1ccc2ccccc2n1	0.177
COC(=O)[C@@]1(Cc2ccc(OC)cc2)[C@H]2c3cc(C(=O)N(C)C)n(CCc4c[nH]c5ccc(O)cc45)c3C[C@H]2CN1C(=O)c1ccccc1	-1.66
C=CCOC(=O)[C@@H]1[C@H]2C(=O)O[C@H](c3ccccc3)[C@H](c3ccccc3)N2[C@H](c2ccc(OCCOC(=O)[C@H]3C[C@H]4C(=O)N[C@@H](CC(C)C)C(=O)N4[C@H]3c3ccc(O)cc3)cc2)[C@@]12C(=O)Nc1ccc(I)cc12	0.15
COCCOC(=O)N1C(=O)[C@@]2(c3cc(C#CC4(O)CCCCCC4)ccc31)[C@H](c1ccccc1OCCO)N1[C@H](c3ccccc3)[C@H](c3ccccc3)OC(=O)[C@H]1[C@@H]2C(N)=O	-2.37
CCOc1cc(C(O)C2C=CC3C(=O)N(C4CCCCC4)C(=O)C3N2Nc2ccc(OC)cc2)ccc1O (stereo not drawn)	0.366
CC(C)CNC(=O)[C@@]1(c2ccc([N+](=O)[O-])cc2)CC(=O)N(C2CCCCC2)[C@@H]1c1ccc(CO)cc1I	0.304
COC(=O)[C@@]1(Cc2ccccc2)[C@H]2c3cc(C(=O)N4CCCC4)n(C[C@H](O)CO)c3C[C@H]2CN1C(=O)c1ccccc1	-1.11
CC(C)NC(=O)[C@@]1(C)c2ccccc2C(=O)N(C(C)C)[C@H]1c1ccc(CO)cc1	-0.619
C=C(CCCC)/C(=C/C[C@@H](OC(=O)c1ccncc1)c1cccc(OCCO)c1)c1cnc2ccccc2c1	-0.021
Cc1ccc(S[C@]2(C(=O)NC(C)C)CC(=O)N(C3Cc4ccccc4C3)[C@@H]2c2ccc(CO)cc2I)cc1	0.6
Cc1ccc(S[C@]2(C(=O)NCc3ccccc3)CC(=O)N(C(C)C)[C@@H]2c2ccc(CO)cc2I)cc1	-0.897
COc1ccc([Si](C)(C)[C@H]2[C@H](CCn3cc([C@H](O)c4ccccc4)nn3)O[C@@]3(C(=O)N(Cc4ccc(N5CCC5=O)cc4)c4ccccc43)[C@@H]2C)cc1	0.399
O=C1c2ccccc2[C@@]2(Cc3ccccc3N(C3CC3)C2=O)[C@H](c2ccc(CO)cc2)N1C1CCCCC1	-0.506
CCOC(=CC(=O)OC)CC(O)c1cccc(Cl)c1 (stereo not drawn)	0.738
COCCOC(=O)N1C(=O)[C@@]2(c3cc(C#CC4(O)CCCCCC4)ccc31)[C@H](C(=O)N1CCCCCCC1)[C@H]1C(=O)O[C@H](c3ccccc3)[C@H](c3ccccc3)N1[C@@H]2c1ccc(OCCO)cc1	0.364
COc1cc2c(cc1OC)CN(C(=O)[C@H]1[C@@H]3C(=O)O[C@@H](c4ccccc4)[C@@H](c4ccccc4)N3[C@@H](c3ccc(OCCO)cc3)[C@]13C(=O)Nc1ccc(C#CC4(O)CCCCCC4)cc13)CC2	0.943
COC(=O)C1(Cc2ccccc2)C=C2C(=C(c3ccccc3)C(=O)C2C)CN1 (stereo not drawn)	-0.874

Data provenance: PubChem BioAssay
